Recorded values, source the supplement of paper PMC10567573.

B1: DLC1 (parent)
chain: AIQGISEKEKAEIEAKEACDWLRA

variants of: B1; assay: protein stability index of a GFP-peptide fusion (GPS, HEK-293T) (PSI 1-6); higher = more stable; details: c terminus: a fixed tail appended;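 also: lentivirally expressed fusions sorted by FACS into six bins by GFP to DsRed ratio, PSI derived from sequencing read proportions per bin multiplied by bin number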
Label scheme for protein stability index: lower than 4 is -1, 4 and above is 1.

For orientation, consider the following solved cases.
A11I :: -1
A18E :: 1
C19F :: 1
G4R :: -1
L22C :: 1

Q: Reported protein stability index reaches at least 4 for `Q3E` ?
Result: 1

Q: Determine whether this variant has protein stability index no lower than 4: `I13Q`
Result: 1

Q: State whether the measured protein stability index reaches 4, counting equality as reaching it, for `I2G`
Result: 1

Q: Could you verify whether the entry `E7D` shows protein stability index of no less than 4?
Result: 1

Q: Could you please find out whether `W21Y` has protein stability index that meets 4 or exceeds it?
Result: 1

Q: Decide: protein stability index of `E14G` >= 4?
Result: -1

Q: Is reported protein stability index greater than or equal to 4 here: `G4Q`
Result: 1

Q: Check if protein stability index >= 4 (inclusive). Item: `I5W`
Result: 1
